- assay_explanation: Selectivity index, ratio of IC50 for human THP1 cells to IC50 for antimony resistant intracellular amastigote stage of Leishmania infantum LEM3323 isolate
- Type: toxicity, cell-based
- run_parameters: read-out: Ratio IC50
test_readout: selectivity ratio

1) C[C@@H]1[C@H](O)[C@@H](C)/C=C/C=C/C=C/C=C/C=C/C=C/C=C/[C@H](O[C@@H]2O[C@H](C)[C@@H](O)[C@H](N)[C@@H]2O)C[C@@H]2O[C@](O)(C[C@@H](O)C[C@@H](O)[C@H](O)CC[C@@H](O)C[C@@H](O)CC(=O)O[C@H]1C)C[C@H](O)[C@H]2C(=O)O [AMPHOTERICIN B]; 155

====

- assay_explanation: Selectivity index, ratio of IC50 for human CFPAC-1 cells to IC50 for intracellular amastigote stage of Leishmania infantum
- Assay type: toxicity, cell-based
- run_parameters: read-out: Ratio IC50
test_readout: selectivity ratio

1. C[C@@H]1[C@H](O)[C@@H](C)/C=C/C=C/C=C/C=C/C=C/C=C/C=C/[C@H](O[C@@H]2O[C@H](C)[C@@H](O)[C@H](N)[C@@H]2O)C[C@@H]2O[C@](O)(C[C@@H](O)C[C@@H](O)[C@H](O)CC[C@@H](O)C[C@@H](O)CC(=O)O[C@H]1C)C[C@H](O)[C@H]2C(=O)O; > 50

====

- assay_explanation: Selectivity index, ratio of IC50 for human THP1 cells to IC50 for intracellular amastigote stage of Leishmania infantum
- Assay type: toxicity, cell-based
- run_parameters: read-out: Ratio IC50
test_readout: selectivity ratio

1. C[C@@H]1[C@H](O)[C@@H](C)/C=C/C=C/C=C/C=C/C=C/C=C/C=C/[C@H](O[C@@H]2O[C@H](C)[C@@H](O)[C@H](N)[C@@H]2O)C[C@@H]2O[C@](O)(C[C@@H](O)C[C@@H](O)[C@H](O)CC[C@@H](O)C[C@@H](O)CC(=O)O[C@H]1C)C[C@H](O)[C@H]2C(=O)O [AMPHOTERICIN B]; > 50

====

- assay_explanation: Selectivity index, ratio of IC50 for human HMEC1 cells to IC50 for intracellular amastigote stage of Leishmania infantum
- Type: toxicity, cell-based
- run_parameters: read-out: Ratio IC50
test_readout: selectivity ratio

1) C[C@@H]1[C@H](O)[C@@H](C)/C=C/C=C/C=C/C=C/C=C/C=C/C=C/[C@H](O[C@@H]2O[C@H](C)[C@@H](O)[C@H](N)[C@@H]2O)C[C@@H]2O[C@](O)(C[C@@H](O)C[C@@H](O)[C@H](O)CC[C@@H](O)C[C@@H](O)CC(=O)O[C@H]1C)C[C@H](O)[C@H]2C(=O)O; > 50

====

- assay_explanation: Selectivity index, ratio of IC50 for mouse BMDM cells to IC50 for intracellular amastigote stage of Leishmania infantum
- Format: toxicity, cell-based
- run_parameters: read-out: Ratio IC50
test_readout: selectivity ratio

1) C[C@@H]1[C@H](O)[C@@H](C)/C=C/C=C/C=C/C=C/C=C/C=C/C=C/[C@H](O[C@@H]2O[C@H](C)[C@@H](O)[C@H](N)[C@@H]2O)C[C@@H]2O[C@](O)(C[C@@H](O)C[C@@H](O)[C@H](O)CC[C@@H](O)C[C@@H](O)CC(=O)O[C@H]1C)C[C@H](O)[C@H]2C(=O)O; > 50

====

- assay_explanation: Selectivity index, ratio of IC50 for human THP1 cells to IC50 for miltefosine resistant intracellular amastigote stage of Leishmania infantum LEM5159 isolate
- Type: toxicity, cell-based
- run_parameters: read-out: Ratio IC50
test_readout: selectivity ratio

1) C[C@@H]1[C@H](O)[C@@H](C)/C=C/C=C/C=C/C=C/C=C/C=C/C=C/[C@H](O[C@@H]2O[C@H](C)[C@@H](O)[C@H](N)[C@@H]2O)C[C@@H]2O[C@](O)(C[C@@H](O)C[C@@H](O)[C@H](O)CC[C@@H](O)C[C@@H](O)CC(=O)O[C@H]1C)C[C@H](O)[C@H]2C(=O)O; 174
